# Organism: Homo sapiens
# assay_text: Selectivity ratio of IC50 for human recombinant ERalpha to IC50 for human recombinant ERbeta
Each entry below carries its reported Ratio IC50.
Could you respond with only the numeric value?

Use the examples below as a reference point.
1) CCCc1c(-c2ccc(O)cc2)nn(-c2ccc(O)cc2)c1-c1ccc(O)cc1 ... 36
2) CC(C)=CCc1c(O)cc2occ(-c3ccc(O)cc3)c(=O)c2c1O ... 0.6
3) COc1cc(O)c2c(=O)c(-c3cc(CC=C(C)C)c(O)cc3O)coc2c1 ... 0.7
4) COc1cc(O)c2c(=O)c(-c3cc4c(cc3O)OC(C)(C)C(O)C4)coc2c1 (stereo not drawn) ... 16
5) CC(C)=CCc1cc(-c2coc3cc(O)cc(O)c3c2=O)ccc1O ... 0.6

Which Ratio IC50 value belongs to COc1ccc2c(c1CC=C(C)C)O[C@H]1c3ccc(O)cc3OC[C@@]21O ?
2.2

Try this molecule too: CC1(C)C=Cc2c(cc3occ(-c4ccc(O)cc4)c(=O)c3c2O)O1
0.7

Try this molecule too: COc1cc(O)c2c(=O)c(-c3ccc(O)c(CC(O)=C(C)C)c3)coc2c1
2.3
